- System: A549 cells
- experiment-summary: Cell Viability Assay, A549
- Assay type: cell-based
- measurement-context: A549; human lung carcinoma; 72 h; CellTiter-Glo
Documented IC50 across a set of molecules

# count of solved cases: 5
> print(dat)
                                   molecule     result
1  C=CC(=O)N1CCN([C@@H]2CN(c3cc(N4CCC5(C[C@H]4C)OCC=C5C)nc(C(F)F)n3)[C@@H]2C)CC1 (stereo partly drawn) [Compound 3-003]     > 5 µM
2  C=CC(=O)N1CCN(C2CN(c3cc(N4CCC5(CC4)OCc4ccccc45)nc(C(F)(F)F)c3C#N)C2)CC1 [Compound 3-028]  > 3.33 µM
3  C=CC(=O)N1CCN([C@@H]2CN(c3cc(N4CCC5(CC4)OCC=C5C)nc(C(F)(F)F)c3C#N)[C@@H]2C)CC1 [Compound 3-052]    4.55 µM
4  C=CC(=O)N1CCN([C@@H]2CN(c3cc(N4CCC5(CC4)OC(C)(C)c4nccc(C)c45)nc(C(F)F)n3)[C@@H]2C)CC1 [Compound 3-096]     > 5 µM
5  C=CC(=O)N1CCN(C2CN(c3cc(N4CCC5(CC4)c4ccccc4C(=O)N5C)nc(C(F)(F)F)c3C#N)C2)CC1 [Compound 3-004]     > 5 µM

Reported IC50 of C=CC(=O)N1CCN([C@@H]2CN(c3cc(N4CC[C@]5(C[C@H]4C)OCCn4ncc(C)c45)nc(C(F)F)n3)[C@@H]2C)CC1 [Compound 3-078] : > 5 µM
